Cited source for all entries: patent US20230174488A1

Target Of Assay: SARS-CoV-2 M^PRO (Severe acute respiratory syndrome coronavirus 2, UniProt P0DTD1)
Protocol Text: biochemical
Assay type: biochemical
Condition Set: In vitro potency data; 30 min pre-incubation, 25 nM M^pro, 25 µM substrate; read-out: IC50
With a cut-off of 500 nM, any IC50 strictly below it is called true (1); any IC50 meeting it or above is called false (0).

Check out these entries, answers already filled in.
[
  {
    "Compound": "O=C(NC1CCC(F)(F)CC1)[C@@H](c1cncnc1)N(C(=O)[C@H](F)Cl)c1ccc(-c2ccno2)cc1 (single isomer, unassigned) [INSCoV-614A(2B)]",
    "Target Of Assay": "SARS-CoV-2 M^PRO (Severe acute respiratory syndrome coronavirus 2, UniProt P0DTD1)",
    "Answer Label": "false (0)"
  },
  {
    "Compound": "CC(C(=O)NC1CCC(F)(F)CC1)(c1cncnc1)N(C(=O)CCl)c1ccc(-c2ccno2)cc1 (single isomer, unassigned) [INSCoV-601P(1A)]",
    "Target Of Assay": "SARS-CoV-2 M^PRO (Severe acute respiratory syndrome coronavirus 2, UniProt P0DTD1)",
    "Answer Label": "true (1)"
  },
  {
    "Compound": "COC(=O)c1ccc(NC(=O)[C@H](c2cncnc2)N(C(=O)CCl)c2ccc(-c3cncs3)cc2)[nH]1 [INSCoV-601T]",
    "Target Of Assay": "SARS-CoV-2 M^PRO (Severe acute respiratory syndrome coronavirus 2, UniProt P0DTD1)",
    "Answer Label": "true (1)"
  },
  {
    "Compound": "O=C(NC1CCC(F)(F)C1)C(c1cncnc1)N(C(=O)CCl)c1ccc(-c2cnco2)cc1 (stereo not shown) [INSCoV-600B]",
    "Target Of Assay": "SARS-CoV-2 M^PRO (Severe acute respiratory syndrome coronavirus 2, UniProt P0DTD1)",
    "Answer Label": "true (1)"
  },
  {
    "Compound": "CC(C(=O)NC1CCC(F)(F)CC1)(c1cncnc1)N(C(=O)CCl)c1ccc(-c2ccno2)cc1 (stereo not shown) [INSCoV-601P]",
    "Target Of Assay": "SARS-CoV-2 M^PRO (Severe acute respiratory syndrome coronavirus 2, UniProt P0DTD1)",
    "Answer Label": "true (1)"
  },
  {
    "Compound": "N#CCC(=O)N(c1ccc(-c2cncs2)cc1)[C@H](C(=O)NC1CCC(F)(F)CC1)c1cncnc1",
    "Target Of Assay": "SARS-CoV-2 M^PRO (Severe acute respiratory syndrome coronavirus 2, UniProt P0DTD1)",
    "Answer Label": "false (0)"
  }
]

[in] Strictly below 500 nM: is that where IC50 of O=C(NC1CCC(F)(F)CC1)[C@H](c1ccnnc1)N(C(=O)CCl)c1ccc(-c2ccns2)cc1 [INSCoV-601J(2)] sits?
[out] false (0)

---

Protocol Text: PAMPA permeability assay
Format: in vitro ADME
Condition Set: pH 7.4
Below, each of the compounds is paired with its reported Papp at 4 h, 10 µM value.
Reply numerically in ×10⁻⁶ cm/s, unit not repeated.

[
  {
    "Compound": "O=C(NC1CCC(F)(F)CC1)[C@@H](c1cncnc1)N(C(=O)[C@@H](F)Cl)c1ccc(-c2cncs2)cc1 (single isomer, unassigned) [INSCoV-614(1B)]",
    "Papp at 4 h, 10 µM, ×10⁻⁶ cm/s": 0.188
  }
]

Moving on to another compound below.
# Papp at 4 h, 10 µM (compound: CC(C(=O)NC1CCC(F)(F)CC1)(c1cncnc1)N(C(=O)CCl)c1ccc(-c2ccno2)cc1 (single isomer, unassigned) [INSCoV-601P(1A)] ) is 0.626
